- assay-name: Kinetic solubility by nephelometry
- Type: physicochemical
- setup-conditions: kinetic solubility, pH 6.5 phosphate buffer, 1% DMSO, 30 min
quantity-measured: sol6.5

Go through the items and report each one's sol6.5.
1. CS(=O)(=O)O.O=C(O)CNCc1ccc([C@H]2CC[C@]3(CC2)OOC2(O3)C3CC4CC(C3)CC2C4)cc1 (stereo partly shown)
2. CS(=O)(=O)O.NC1C2CC3CC1CC(C2)C31OO[C@]2(CC[C@@H](c3ccc(OCC(=O)O)cc3)CC2)O1 (stereo partly shown)

**Result**
["< 6.3 µg/mL", "< 1.6 µg/mL"]

# batch: return sol6.5 for each of the 3 compounds below
1. O=C(O)COc1c(Cl)cc([C@H]2CC[C@]3(CC2)OOC2(O3)C3CC4CC(C3)CC2C4)cc1Cl (stereo partly shown)
2. O=C(O)COc1ccc([C@H]2CC[C@]3(CC2)OOC2(O3)C3CC4CC2CC(C3)C4O)cc1 (stereo partly shown)
3. CC(=O)NC1C2CC3CC1CC(C2)C31OO[C@]2(CC[C@@H](c3ccc(OCC(=O)O)cc3)CC2)O1 (stereo partly shown)

**Result**
1: 3.1 to 6.3 µg/mL; 2: 25 to 50 µg/mL; 3: 12.5 to 25 µg/mL

Please go through the list and note sol6.5 for each compound.
1. CS(=O)(=O)O.CS(=O)(=O)O.O=C(O)CNCc1ccc([C@H]2CC[C@]3(CC2)OOC2(O3)C3CC4CC2CC(C3)N4)cc1 (stereo partly shown)
2. CS(=O)(=O)NC(=O)COc1ccc([C@H]2CC[C@]3(CC2)OOC2(O3)C3CC4CC(C3)CC2C4)cc1 (stereo partly shown)

**Result**
1. 50 to 100 µg/mL
2. 6.3 to 12.5 µg/mL
